Measured pIC50 (Human M3 receptor (Homo sapiens))
pIC50: −log10 of the molar value.

Look over these answered cases.
smiles_structure=COc1cc(CNC[C@H](O)c2ccc(O)c3[nH]c(=O)ccc23)ccc1C(=O)N1CCC(c2cccc([C@](O)(C(=O)OCC3CCN(Cc4ccccc4)CC3)c3ccccc3)c2)CC1 recorded_endpoint=pIC50 observed_result="8.52 to 9.52"
smiles_structure=O=C(NCC(=O)N1CC=C(c2cccc([C@](O)(C(=O)OCC3CCN(Cc4ccccc4)CC3)c3ccccc3)c2)CC1)c1ccc(CCNC[C@H](O)c2ccc(O)c3[nH]c(=O)ccc23)cc1 recorded_endpoint=pIC50 observed_result="> 9.52"

Consider the additional compound presented here.
[Q] Notebook: pull reported pIC50 for Human M3 receptor (Homo sapiens), entry Cc1cc(C(=O)NCc2ccc(-c3cccc([C@](O)(C(=O)OCC4CCN(Cc5ccccc5)CC4)c4ccccc4)c3)s2)ccc1CNC[C@H](O)c1ccc(O)c2[nH]c(=O)ccc12
[A] 8.52 to 9.52
